Each entry below carries its reported percent inhibition of Factor XI.
# System: human Factor XI mRNA
# Assay Text: Dose-dependent antisense inhibition in HepG2 cells, lipofectin (Example 2)
# Format: cell-based
# Particulars: 150 nM, approximately 16 hours
In the oligonucleotide strings, read from the 5' end, every base follows the letter of its sugar. An asterisk marks phosphorothioate; unmarked linkages are phosphodiester. Other units and linkages are bracketed, terminal groups are in braces. A string of capitals states the bases alone. e = 2'-O-(2-methoxyethyl) (MOE); [5mC] = 5-methylcytosine; d = 2'-deoxy (DNA)
Quantity Measured: percent inhibition of Factor XI (%)

Substance | Reported Value
413482 (antisense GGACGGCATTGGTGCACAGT; sugars from the 5' end e5 d10 e5, backbone and methylation of C not given here) [compound 413482] | 82
412212 (antisense e[5mC]*e[5mC]*eG*eG*eG*dA*dT*dG*dA*dT*dG*dA*dG*dT*dG*e[5mC]*eA*eG*eA*eT) [compound 412212] | 88
413469 (antisense eT*eG*e[5mC]*e[5mC]*e[5mC]*dT*dT*d[5mC]*dA*dT*dG*dT*d[5mC]*dT*dA*eG*eG*eT*e[5mC]*e[5mC]) [compound 413469] | 84
412206 (antisense e[5mC]*e[5mC]*eG*eT*eG*d[5mC]*dA*dT*d[5mC]*dT*dT*dT*d[5mC]*dT*dT*eG*eG*e[5mC]*eA*eT) [compound 412206] | 89
413467 (antisense eG*eG*eT*e[5mC]*e[5mC]*dA*d[5mC]*dA*dT*dA*dA*dA*dT*dG*dT*e[5mC]*eT*eT*eT*eG) [compound 413467] | 47
412223 (antisense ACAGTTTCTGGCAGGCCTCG; sugars from the 5' end e5 d10 e5, backbone and methylation of C not given here) [compound 412223] | 81
413468 (antisense eG*eT*e[5mC]*eT*eA*dG*dG*dT*d[5mC]*d[5mC]*dA*d[5mC]*dA*dT*dA*eA*eA*eT*eG*eT) [compound 413468] | 75
